The entries below are paired with their reported log10(EC50).
- target: Transient receptor potential cation channel subfamily A member 1 (Homo sapiens, UniProt O75762)
- Sequence (O75762 whole entry): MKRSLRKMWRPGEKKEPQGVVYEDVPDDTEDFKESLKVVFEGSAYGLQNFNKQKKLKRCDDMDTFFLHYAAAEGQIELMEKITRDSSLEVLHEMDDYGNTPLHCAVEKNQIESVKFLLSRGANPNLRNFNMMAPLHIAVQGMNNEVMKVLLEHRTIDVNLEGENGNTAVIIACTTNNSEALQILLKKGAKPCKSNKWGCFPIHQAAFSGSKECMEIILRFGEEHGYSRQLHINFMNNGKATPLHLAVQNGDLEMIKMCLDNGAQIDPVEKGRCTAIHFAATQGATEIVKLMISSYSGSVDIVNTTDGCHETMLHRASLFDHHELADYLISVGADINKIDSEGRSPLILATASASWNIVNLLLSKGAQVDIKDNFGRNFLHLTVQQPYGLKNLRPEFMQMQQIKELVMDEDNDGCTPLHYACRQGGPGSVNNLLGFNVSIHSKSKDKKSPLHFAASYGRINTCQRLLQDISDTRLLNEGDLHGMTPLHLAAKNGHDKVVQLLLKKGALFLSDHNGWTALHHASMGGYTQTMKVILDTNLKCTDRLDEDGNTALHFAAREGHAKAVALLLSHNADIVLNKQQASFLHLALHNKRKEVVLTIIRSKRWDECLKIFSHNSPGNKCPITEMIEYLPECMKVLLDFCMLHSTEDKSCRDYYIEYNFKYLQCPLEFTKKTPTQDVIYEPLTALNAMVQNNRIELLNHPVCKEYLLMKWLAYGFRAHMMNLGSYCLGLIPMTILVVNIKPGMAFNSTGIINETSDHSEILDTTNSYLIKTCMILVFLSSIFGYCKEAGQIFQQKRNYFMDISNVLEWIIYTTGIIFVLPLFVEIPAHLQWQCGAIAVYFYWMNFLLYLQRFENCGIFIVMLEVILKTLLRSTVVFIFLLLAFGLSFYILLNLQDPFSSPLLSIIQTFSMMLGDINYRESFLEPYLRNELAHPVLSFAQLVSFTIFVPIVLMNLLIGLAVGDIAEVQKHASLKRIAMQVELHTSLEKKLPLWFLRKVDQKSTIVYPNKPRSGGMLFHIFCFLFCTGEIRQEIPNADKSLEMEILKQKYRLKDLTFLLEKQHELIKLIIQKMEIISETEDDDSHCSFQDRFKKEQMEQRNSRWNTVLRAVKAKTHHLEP
- assay-notes: Activation of TRPA1
On a log10 scale: recorded EC50, unit µM.

Would you please look over these solved cases?
molecule | log10(EC50)
C#CCN1C(=O)/C(=C/C(C)=O)c2ccccc21 | -1.00
C#CCN=C=S [PROPARGYL ISOTHIOCYANATE] | 1.26
CS(=O)(=O)SCCN | 0.20
C#CCCCCNC(=O)CI [IODOACETAMIDE ALKYNE] | 2.13
C=CC=O [ACROLEIN] | 0.70

Query: // Input: CC/C=C/C=O [PENTENAL] . Output its log10(EC50) only.
Reply: 0.70

Query: // Input: `O=C/C=C/c1ccccc1` . Output its log10(EC50) only.
Reply: 1.28

Query: // Input: `CC(=O)/C=C1/C(=O)N(C)c2ccccc21` . Output its log10(EC50) only.
Reply: -0.10

Query: // Input: NC(=O)CI [IODOACETAMIDE] . Output its log10(EC50) only.
Reply: 2.55

The reported numbers originate from ChEMBL document CHEMBL1147055.
